Recorded pIC50 values (human mPGES-1 (Homo sapiens)) are given below.
pIC50: −log10 of the molar value.
measured attribute: pIC50

Check out these entries, answers already filled in.
1) CCC[C@H](C)Oc1ccc(-c2nc(O)nc(-c3cc(CNC(=O)C(CC)(OC)C(F)(F)F)ccc3Cl)n2)cn1 (single isomer, unassigned) [Example 145] ... 8.35
2) COc1ccc(-c2nc(O)nc(-c3cc(CNC(=O)C(C)(C)C(F)(F)F)ccc3Cl)n2)cn1 ... 9.15
3) CCC[C@H](C)Oc1ccc(-c2nc(O)nc(-c3cc(CNC(=O)C(CC)(OC)C(F)(F)F)ccc3Cl)n2)cn1 (single isomer, unassigned) [Example 144] ... 8.41
4) CC1(c2cccc(-c3nc(O)nc(-c4cc(CNC(=O)C5(CF)CCCCC5)ccc4Cl)n3)c2)CC1 ... 9.05
5) COC1(C(=O)NCc2ccc(Cl)c(-c3nc(O)nc(-c4cccc(C(C)(C)C)c4)n3)c2)CCCC1 ... 9.05

[a] CCC(OC)(C(=O)NCc1ccc(Cl)c(-c2nc(O)nc(-c3ccc(Cl)c(C(C)C)c3)n2)c1)C(F)(F)F (centres unmarked)
[b] CC(C)c1cccc(-c2nc(O)nc(-c3cc(CNC(=O)C4(C(F)(F)F)CCCCC4)ccc3Cl)n2)c1
[c] CC(C)c1cccc(-c2nc(O)nc(-c3cc(CNC(=O)C4(F)CC4)ccc3Cl)n2)c1
[d] CC(C)(C(=O)NCc1ccc(Cl)c(-c2nc(O)nc(-c3ccc(OC4CCC4)nc3)n2)c1)C(F)(F)F
[e] CC(C)(C)c1cccc(-c2nc(O)nc(-c3cc(CNC(=O)C4(CF)CCCC4)ccc3Cl)n2)c1
Please order the records by their reported pIC50, lowest number first. When ranking, write the labels in the order the request describes.
a, c, e, b, d

[a] CCC[C@@H](C)Oc1ccc(-c2nc(O)nc(-c3cc(CNC(=O)C(CC)(CC)C(F)F)ccc3Cl)n2)cn1
[b] CC(C)c1cccc(-c2nc(O)nc(-c3cc(CNC(=O)C4(C(F)F)CCCC4)ccc3Cl)n2)c1
[c] CCOC(C)(C)C(=O)NCc1ccc(Cl)c(-c2nc(O)nc(-c3cccc(C(C)C)c3)n2)c1
[d] CCCCCCOc1ccc(-c2nc(O)nc(-c3cc(CNC(=O)C(CC)(CC)OC)ccc3Cl)n2)cn1
[e] CC(C)c1cccc(-c2nc(O)nc(-c3cc(CNC(=O)C(C)(C)CF)ccc3Cl)n2)c1
Arrange these 5 molecules in increasing order of pIC50. Use the labels to give the ranking in the order requested.
c, d, a, e, b

[P] CC(C)(C)c1cc(-c2nc(O)nc(-c3cc(CNC(=O)C(C)(C)C(F)(F)F)ccc3Cl)n2)ccc1Cl
[Q] CCCOc1ccc(-c2nc(O)nc(-c3cc(CNC(=O)C4(C(F)(F)F)CCCC4)ccc3Cl)n2)cn1
Quick check, higher pIC50 between P and Q ? Give the label of your selection.
Q

[a] CCC[C@H](C)Oc1ccc(-c2nc(O)nc(-c3cc(CNC(=O)C(CC)(CC)C(F)F)ccc3Cl)n2)cn1
[b] CC1(c2cccc(-c3nc(O)nc(-c4cc(CNC(=O)C5(C(F)(F)F)CCCCC5)ccc4Cl)n3)c2)CC1
[c] CC(C)c1cccc(-c2nc(O)nc(-c3cc(CNC(=O)C4(C)CCCCC4)ccc3Cl)n2)c1
# sort list by recorded pIC50, greatest to least List each label, following the requested order.
c, b, a
(c: 9.40, b: 8.80, a: 8.42)

* * *

Protein target, amino acids: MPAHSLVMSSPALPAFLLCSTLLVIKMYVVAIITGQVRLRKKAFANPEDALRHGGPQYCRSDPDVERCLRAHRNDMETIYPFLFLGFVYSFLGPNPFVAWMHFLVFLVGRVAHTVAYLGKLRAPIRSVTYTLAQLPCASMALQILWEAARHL
pIC50: −log10 of the molar value.
measured attribute: pIC50

Sample records with pIC50:
1) CC(C)c1cccc(-c2nc(O)nc(-c3cc(CNC(=O)C(C)(C)CC(F)(F)F)ccc3Cl)n2)c1 [Example 76] ... 8.89
2) CC(C)c1cc(-c2nc(O)nc(-c3cc(CNC(=O)C4(C(F)(F)F)CCCC4)ccc3Cl)n2)ccc1Cl [Example 55] ... 8.72
3) CCC[C@@H](C)Oc1ccc(-c2nc(O)nc(-c3cc(CNC(=O)C(CC)(CC)OC)ccc3Cl)n2)cn1 [Example 79] ... 8.34
4) CCC[C@H](C)Oc1ccc(-c2nc(O)nc(-c3cc(CNC(=O)C4(C(F)(F)F)CCCC4)ccc3Cl)n2)cn1 [Example 140] ... 8.00
5) CCCCCCOc1ccc(-c2nc(O)nc(-c3cc(CNC(=O)[C@@](C)(OC)C(F)(F)F)ccc3Cl)n2)cn1 [Example 83] ... 8.30

[a] CCCCCCOc1ccc(-c2nc(O)nc(-c3cc(CNC(=O)C(C)(C)C(F)F)ccc3Cl)n2)cn1 [Example 85]
[b] CCC[C@H](C)Oc1ccc(-c2nc(O)nc(-c3cc(CNC(=O)C(CC)(CC)CF)ccc3Cl)n2)cn1 [Example 131]
Between the entries labelled a and b , which has a larger pIC50 value on record? Answer with the label corresponding to your selection.
b
(b: 8.54, a: 8.31)

[a] CCC[C@H](C)Oc1ccc(-c2nc(O)nc(-c3cc(CNC(=O)C4(C(F)F)CCCC4)ccc3Cl)n2)cn1 [Example 110]
[b] CCCOc1cccc(-c2nc(O)nc(-c3cc(CNC(=O)C(C)(C)C(F)(F)F)ccc3Cl)n2)c1 [Example 1]
Recorded pIC50 values differ for a and b ; which one is higher? When you have decided, please share the label of that item.
b
